Source listed as PubChem BioAssay AID720697.

# test: general mammalian cell viability loss – inhibitor set, cherry-pick, set 2, cytotoxicity control for miR-122 modulator project, dose response (AID 720697)
# assaySetup: HEK293T viability, CellTiter-Glo luminescence, 48 h; series mostly up to 26 µM
Potency and affinity values are given separately. Inconclusive results are not listed. Calls of active or inactive are those of the source.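 How the source made its calls: active means signal loss with fitted half-maximal concentration at or below twice the top valid tested dose in every test run; inconclusive means runs disagree, flat 30 to 70% signal loss, or poor fit; inactive means all runs flat, opposite direction, or potency beyond limit.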

{"compound": "Cc1onc(-c2ccccc2)c1C(=O)NCc1ccccn1", "activity change, negative = cytotoxicity": "inactive"}
{"compound": "CN1C(=O)c2cc(NC(=O)Nc3ccc(Cl)cc3)ccc2OC[C@H]2O[C@H](CC(=O)NCCN3CCCCC3)CC[C@H]21", "activity change, negative = cytotoxicity": "inactive"}
{"compound": "CC(=O)Nc1ccc(S(=O)(=O)Nc2ccc(S(=O)(=O)Nc3nc(C)cc(C)n3)cc2)cc1", "activity change, negative = cytotoxicity": "inactive"}
{"compound": "O=C(Nc1ccccc1F)N1[C@H](CO)[C@@H]2c3ccccc3NC[C@@H]21", "activity change, negative = cytotoxicity": "inactive"}
{"compound": "O=C(C1CC1)N(CCN(C(=O)C1CC1)c1ccccc1)c1ccccc1", "activity change, negative = cytotoxicity": "inactive"}
{"compound": "CC(=O)Nc1ccc2c(c1)C(=O)N(C)[C@H]1CC[C@H](CC(=O)Nc3ccccc3Cl)O[C@@H]1CO2", "activity change, negative = cytotoxicity": "inactive"}
{"compound": "C[C@@H]1CN([C@@H](C)CO)S(=O)(=O)c2ccc(/C=C/c3ccccc3)cc2O[C@@H]1CN(C)C(=O)c1cccnc1", "activity change, negative = cytotoxicity": "inactive"}
{"compound": "O=C(c1cccc(F)c1)N1C[C@@H]2[C@H](c3ccccc31)[C@H](CO)N2C(=O)Cc1ccccc1", "activity change, negative = cytotoxicity": "inactive"}
{"compound": "Cc1ccc(-c2cnc3c(c2)C(=O)N([C@H](C)CO)C[C@@H](C)[C@H](CN(C)CC2CCCCC2)O3)cc1", "activity change, negative = cytotoxicity": "inactive"}
{"compound": "CCOc1cc(C(=O)NC(C)COC)cc(OCC)c1OCC (stereo not drawn)", "activity change, negative = cytotoxicity": "inactive"}
{"compound": "CN(C)CCNC(=O)C1CC(=O)N(c2ccc(F)c(Cl)c2)C1 (stereo not drawn)", "activity change, negative = cytotoxicity": "inactive"}
{"compound": "Cc1ccnc(Nc2nc(-c3c(C)nc4sccn34)cs2)c1", "activity change, negative = cytotoxicity": "inactive"}
{"compound": "COc1ccc(S(=O)(=O)N(C)C[C@@H]2Oc3cc(-c4cccc(F)c4)ccc3S(=O)(=O)N([C@H](C)CO)C[C@H]2C)cc1", "activity change, negative = cytotoxicity": "inactive"}
{"compound": "CNC(=O)C[C@@H]1CC[C@@H]2[C@@H](COc3ccc(NC(=O)c4ccccc4F)cc3C(=O)N2C)O1", "activity change, negative = cytotoxicity": "inactive"}
{"compound": "COc1cc(N)c(Cl)cc1NC(=O)c1ccccc1", "activity change, negative = cytotoxicity": "inactive"}
{"compound": "COCC(=O)Nc1ccc2c(c1)C(=O)N(C)[C@H]1CC[C@@H](CC(=O)NC3CCCC3)O[C@H]1CO2", "activity change, negative = cytotoxicity": "inactive"}
{"compound": "C/C=C/c1ccc([C@@H]2[C@@H](CO)N(C(C)=O)[C@@H]2CN(CC)C(=O)CN(C)C)cc1", "activity change, negative = cytotoxicity": "inactive"}
{"compound": "Cc1cccc(NC(=O)Nc2ccc3c(c2)C(=O)N(C)[C@@H]2CC[C@@H](CC(=O)NCc4ccccc4Cl)O[C@H]2CO3)c1", "activity change, negative = cytotoxicity": "inactive"}
